VALUE_KIND: logP

1) O=C(O)CN1CCCCC1 : -1.05
2) COc1cccc(COC(=O)N(C)C)c1 : 2.09
3) O=C(O)c1ccc([N+](=O)[O-])cc1 : 1.89
4) O=c1cc[nH]cn1 : -1.38
5) O=NN(CCCl)C(=O)Nc1ccccc1 : 2.49
6) O=C1CCN(c2ccccc2)N1 : 0.89
7) CC(C)c1nnc(S)n(N)c1=O : 1.22
8) O=C(Oc1ccccc1)n1cc(F)c(=O)[nH]c1=O : 0.64
9) FC(F)(F)c1ccccc1Cl : 3.53
10) CCCCNC(=O)c1cccnc1 : 0.9
11) CC(=O)Nc1cn[nH]c1 : -0.38
12) CC(=O)[C@@]1(O)CC[C@H]2[C@@H]3CCC4=CC(=O)CC[C@]4(C)[C@H]3CC[C@@]21C : 3.17
13) CC(=O)OCC1=C(C(=O)O)N2C(=O)[C@@H](NC(=O)Cc3cccs3)[C@H]2SC1 : -0.41
14) CC(C)(C)NC[C@H](O)COc1nsnc1N1CCOCC1 : 1.83
15) CC(C)(C)NCCO : 0.41
16) Brc1cccs1 : 2.75
17) CCN(CC)CC(=O)NC1CCc2ccccc21 (stereo unspecified) : 2.74
18) O=C(O)Cc1ccc(Cl)cc1 : 2.12
19) Cc1nc(-c2ccccc2)c2ccccc2n1 : 3.1
20) O=C(OCC1CCC(n2cnc3c(=O)[nH]cnc32)O1)c1ccccc1 (stereo unspecified) : 0.66
21) CCCC(=O)OC : 1.29
22) COc1ccnc2c([N+](=O)[O-])cccc12 : 1.92
23) CNc1ccc(C)cc1 : 2.15
24) CNC(=O)Oc1cc(C)ccc1C : 2.03
25) CCOP(=O)(OCC)Oc1ccccc1 : 1.64
26) CN(C)CCCNC(=O)c1ccccc1 : 1.27
27) O=c1[nH]cnc2n[nH]nc12 : -1.97
28) c1ccc2ncccc2c1 : 2.03
29) NC(=O)CCCc1ccccn1 : -0.01
30) CS(=O)(=O)OCCCCOS(C)(=O)=O : -0.52
31) CCc1ccccc1OC(=O)NC : 1.93
